# Test system: GFP protein synthesis
# TEST_METHOD_NOTES: Toxicity in human HeLa cells expressing pCFE-GFP assessed as inhibition of GFP proetin synthesis at 25 uM incubated for 30 mins measured for 2 hrs by spectrophotometric method relative to control
# Type: cell-based
Parameter inhibition at 30 min, 25 µM: see the listing below.
MEASUREMENT_NAME: inhibition at 30 min, 25 µM (%)

- COc1ccc(C[C@H](N)C(=O)N[C@H]2[C@@H](O)[C@H](n3cnc4c(N(C)C)ncnc43)O[C@@H]2CO)cc1 [PUROMYCIN]: 99
- CN(C)c1ncnc2c1ncn2[C@@H]1O[C@H](CO)[C@@H](NC(=O)[C@@H](N)CSCc2ccccc2)[C@H]1O: 30
- CN(C)c1ncnc2c1ncn2[C@@H]1O[C@H](CO)[C@@H](NC(=O)[C@@H](N)CSC(c2ccccc2)c2ccccc2)[C@H]1O: 0
- N[C@@H](CSC(c1ccccc1)c1ccccc1)C(=O)NCCCO: 0
- CN(C)c1ncnc2c1ncn2[C@@H]1O[C@H](CO)[C@@H](NC(=O)[C@@H](N)Cc2ccccc2)[C@H]1O: 59
- CC(C)C[C@@H](C(=O)N[C@H](C(=O)OC1CCCC1)c1ccccc1)[C@H](O)C(=O)NO [TOSEDOSTAT]: 35
- CC(C)C[C@H](NC(=O)[C@@H](O)[C@H](N)Cc1ccccc1)C(=O)O [UBENIMEX]: 28
- CN(C)c1ncnc2c1ncn2[C@@H]1O[C@H](CO)[C@@H](NC(=O)[C@H](N)CSC(c2ccccc2)(c2ccccc2)c2ccccc2)[C@H]1O: 0
- CN(C)c1ncnc2c1ncn2[C@@H]1O[C@H](CO)[C@@H](NC(=O)[C@H](N)CSC(c2ccccc2)c2ccccc2)[C@H]1O: 0
- CN(C)c1ncnc2c1ncn2[C@@H]1O[C@H](CO)[C@@H](NC(=O)[C@@H](N)CSC(c2ccccc2)(c2ccccc2)c2ccccc2)[C@H]1O: 0
- CN(C)c1ncnc2c1ncn2[C@@H]1O[C@H](CO)[C@@H](NC(=O)[C@H](N)CSCc2ccccc2)[C@H]1O: 0

====

# Tested on: GFP protein synthesis
# TEST_METHOD_NOTES: Toxicity in human HeLa cells expressing pCFE-GFP assessed as inhibition of GFP proetin synthesis at 10 uM incubated for 30 mins measured for 2 hrs by spectrophotometric method relative to control
# Assay type: cell-based
MEASUREMENT_NAME: inhibition at 30 min, 10 µM

• CN(C)c1ncnc2c1ncn2[C@@H]1O[C@H](CO)[C@@H](NC(=O)[C@@H](N)CSCc2ccccc2)[C@H]1O = 30%

====

# Tested on: MOLT-4
# TEST_METHOD_NOTES: cells
# EXPERIMENTAL_SETUP: Homo sapiens, MOLT-4, 72 h
# Description: Antiproliferative activity against human MOLT4 cells after 72 hrs by MTT assay
MEASUREMENT_NAME: EC50

* CN(C)c1ncnc2c1ncn2[C@@H]1O[C@H](CO)[C@@H](NC(=O)[C@H](N)CSC(c2ccccc2)c2ccccc2)[C@H]1O | 11 µM
* N[C@@H](CSC(c1ccccc1)c1ccccc1)C(=O)NCCCO | > 100 µM
* CN(C)c1ncnc2c1ncn2[C@@H]1O[C@H](CO)[C@@H](NC(=O)[C@@H](N)CSC(c2ccccc2)(c2ccccc2)c2ccccc2)[C@H]1O | 31 µM
* CN(C)c1ncnc2c1ncn2[C@@H]1O[C@H](CO)[C@@H](NC(=O)[C@@H](N)CSC(c2ccccc2)c2ccccc2)[C@H]1O | 1.3 µM
* CC(C)C[C@H](NC(=O)[C@@H](O)[C@H](N)Cc1ccccc1)C(=O)O | > 100 µM
* CN(C)c1ncnc2c1ncn2[C@@H]1O[C@H](CO)[C@@H](NC(=O)[C@H](N)CSC(c2ccccc2)(c2ccccc2)c2ccccc2)[C@H]1O | 14 µM
* CN(C)c1ncnc2c1ncn2[C@@H]1O[C@H](CO)[C@@H](NC(=O)[C@H](N)CSCc2ccccc2)[C@H]1O | 14 µM
* CN(C)c1ncnc2c1ncn2[C@@H]1O[C@H](CO)[C@@H](NC(=O)[C@@H](N)CSCc2ccccc2)[C@H]1O | 0.18 µM

====

# TEST_METHOD_NOTES: Cytotoxicity against African green monkey Vero cells assessed as reduction in cell proliferation after 72 hrs by MTT assay
# Type: cell-based
# EXPERIMENTAL_SETUP: chlorocebus sabaeus
Parameter CC50 at 72 h: see the listing below.
MEASUREMENT_NAME: CC50 at 72 h

* CN(C)c1ncnc2c1ncn2[C@@H]1O[C@H](CO)[C@@H](NC(=O)[C@@H](N)CSC(c2ccccc2)c2ccccc2)[C@H]1O | > 100 µM
* N[C@@H](CSC(c1ccccc1)c1ccccc1)C(=O)NCCCO | > 100 µM
* CN(C)c1ncnc2c1ncn2[C@@H]1O[C@H](CO)[C@@H](NC(=O)[C@@H](N)CSC(c2ccccc2)(c2ccccc2)c2ccccc2)[C@H]1O | > 100 µM
